# assay_target: PPARγ (Homo sapiens (Human))
# Sequence (P37231 29-505): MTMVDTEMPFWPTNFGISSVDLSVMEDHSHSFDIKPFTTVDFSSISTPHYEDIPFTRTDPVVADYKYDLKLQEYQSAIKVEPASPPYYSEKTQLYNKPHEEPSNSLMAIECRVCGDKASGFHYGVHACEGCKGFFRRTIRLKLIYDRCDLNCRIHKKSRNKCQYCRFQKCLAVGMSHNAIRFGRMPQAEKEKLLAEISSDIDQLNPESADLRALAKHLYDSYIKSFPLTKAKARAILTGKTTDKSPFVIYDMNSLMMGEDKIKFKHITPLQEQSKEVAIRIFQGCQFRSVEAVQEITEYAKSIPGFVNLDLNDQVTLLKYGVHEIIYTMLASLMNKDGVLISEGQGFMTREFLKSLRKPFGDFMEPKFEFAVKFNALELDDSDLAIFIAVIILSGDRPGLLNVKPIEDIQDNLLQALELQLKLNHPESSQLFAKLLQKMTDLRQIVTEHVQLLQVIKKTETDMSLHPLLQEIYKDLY
# Sequence (P19793 whole entry partner): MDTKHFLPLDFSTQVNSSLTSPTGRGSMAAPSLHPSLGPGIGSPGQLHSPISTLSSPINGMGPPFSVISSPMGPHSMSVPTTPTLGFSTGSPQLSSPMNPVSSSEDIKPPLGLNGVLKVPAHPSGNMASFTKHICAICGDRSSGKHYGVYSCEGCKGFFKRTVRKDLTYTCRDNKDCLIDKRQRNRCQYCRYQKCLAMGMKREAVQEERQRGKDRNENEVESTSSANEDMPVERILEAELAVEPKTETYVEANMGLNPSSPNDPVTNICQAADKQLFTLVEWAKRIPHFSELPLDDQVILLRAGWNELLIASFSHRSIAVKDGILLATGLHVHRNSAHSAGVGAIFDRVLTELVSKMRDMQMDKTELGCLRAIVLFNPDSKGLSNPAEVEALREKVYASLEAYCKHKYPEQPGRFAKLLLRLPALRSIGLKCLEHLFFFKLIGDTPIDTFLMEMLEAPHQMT
# test_description: PPARγ activating action (luciferase reporter in PPARγ:RXRα:4ERPP/CHO-K1 cells)
# Format: cell-based
# condition: CHO-K1, 24 h; test compound 1 μM; luciferase activity relative to control compound X (1 μM) = 100%, non-administration group = 0%; read-out: PPARγ activating action (activation % (1 μM))
Decide using activation at 1 µM: a value greater than or equal to 40% is Y, a smaller one is N.

- CCc1cc2c(=O)n(-c3ccc(OC(C)C)cc3)c(=O)n(Cc3ccc(-c4ccccc4-c4noc(=O)[nH]4)cc3F)c2s1: Y
- CC(C)(C)C(O)Cn1c(=O)c2cc(C3CC3)sc2n(Cc2ccc(-c3ccccc3-c3noc(=O)[nH]3)cc2)c1=O (stereo not drawn): Y
- CCc1cc2c(=O)n(CC(=NOC)c3ccccc3)c(=O)n(Cc3ccc(-c4ccccc4-c4noc(=O)[nH]4)cc3)c2s1: N
- CCc1cc2c(=O)n(CC(=O)c3ccccc3)c(=O)n(Cc3ccc(-c4ccccc4-c4noc(=O)[nH]4)cc3)c2s1: Y
- CCc1cc2c(=O)n(CC(=O)c3ccc(Cl)cc3)c(=O)n(Cc3ccc(-c4ccccc4-c4noc(=O)[nH]4)cc3)c2s1: N
- CCc1cc2c(=O)n(CC3(O)CCOCC3)c(=O)n(Cc3ccc(-c4ccccc4-c4noc(=O)[nH]4)cc3)c2s1: N
- CCc1cc2c(=O)n(CC(=O)C(C)(C)COC(C)=O)c(=O)n(Cc3ccc(-c4ccccc4-c4noc(=O)[nH]4)cc3)c2s1: N

Values from patent US8501750B2
